# SUBJECT OF TEST: Ubiquitin-activating enzyme e1, putative (Leishmania donovani (strain BPK282A1)) (UniProt E9BSI1)
# Sequence (whole entry): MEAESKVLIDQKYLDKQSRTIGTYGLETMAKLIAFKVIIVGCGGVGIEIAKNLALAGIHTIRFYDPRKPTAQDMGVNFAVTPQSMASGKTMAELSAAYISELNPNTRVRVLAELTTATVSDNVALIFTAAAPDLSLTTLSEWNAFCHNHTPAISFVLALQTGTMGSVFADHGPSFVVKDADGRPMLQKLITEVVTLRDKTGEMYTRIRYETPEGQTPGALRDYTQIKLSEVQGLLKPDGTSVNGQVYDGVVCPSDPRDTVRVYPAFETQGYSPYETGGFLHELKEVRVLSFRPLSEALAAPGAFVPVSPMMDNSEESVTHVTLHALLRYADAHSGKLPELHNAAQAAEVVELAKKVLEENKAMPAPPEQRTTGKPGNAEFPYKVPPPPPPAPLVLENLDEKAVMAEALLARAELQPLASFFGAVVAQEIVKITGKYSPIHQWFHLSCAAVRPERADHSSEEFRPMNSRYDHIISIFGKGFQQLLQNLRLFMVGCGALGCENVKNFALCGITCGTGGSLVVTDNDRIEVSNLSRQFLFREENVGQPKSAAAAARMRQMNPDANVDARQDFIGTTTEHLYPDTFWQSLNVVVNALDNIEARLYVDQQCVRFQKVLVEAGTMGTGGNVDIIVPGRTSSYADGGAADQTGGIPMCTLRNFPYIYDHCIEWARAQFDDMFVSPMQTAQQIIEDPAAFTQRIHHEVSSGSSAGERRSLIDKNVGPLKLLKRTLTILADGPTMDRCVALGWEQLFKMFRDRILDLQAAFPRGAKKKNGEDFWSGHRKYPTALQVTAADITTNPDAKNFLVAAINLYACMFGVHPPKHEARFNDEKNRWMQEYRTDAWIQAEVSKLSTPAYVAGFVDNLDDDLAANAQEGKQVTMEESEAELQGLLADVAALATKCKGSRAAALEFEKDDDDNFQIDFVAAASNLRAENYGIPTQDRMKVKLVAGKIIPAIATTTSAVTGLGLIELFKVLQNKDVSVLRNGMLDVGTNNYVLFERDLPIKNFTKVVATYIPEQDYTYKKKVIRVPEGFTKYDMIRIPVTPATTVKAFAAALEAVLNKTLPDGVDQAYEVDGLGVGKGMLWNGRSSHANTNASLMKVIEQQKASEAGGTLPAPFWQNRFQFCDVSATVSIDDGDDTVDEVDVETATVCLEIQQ
# PROTOCOL NOTES: Leishmania donovani Ubiquitin Activating Enzyme (LdE1)
# Type: functional
# Design: scale not given: direction of the effect not stated beside the values
# RUN PARAMETERS: 30 µM
Measured potencies and affinities stand elsewhere.
Below is a list of entries, each paired with its recorded Percent Effect value.
Hi! Could you send only the number? It should be in %, unit omitted.

Reference set, count: 5
INSERT INTO results (compound, measured_value) VALUES
  ('Cc1nnc2n1CCN(C(C(=O)NC1CC1)c1ccccc1)C2 (configuration not stated)', 2.56),
  ('O=C(NCCOc1ccc2c(c1)CCC2)N1CCS(=O)(=O)CC1', 2.56),
  ('CN1CCOC(CNCc2coc(-c3cccs3)n2)C1 (configuration not stated)', 22.8),
  ('O=C(c1ccc(-n2ccnc2)nc1)N1CCCC(n2cccn2)C1 (configuration not stated)', 7.89),
  ('Cc1ncsc1C(=O)NC1CCN(CC(=O)N(C)c2ccccc2)CC1', 18.4);

Q. Percent Effect for "CN(C)CCN1CCC2(CC1)CN(c1cccnc1)C(=O)CO2" ?
A. 10.8

Q. If you can, please state the reported Percent Effect value of "NC(=O)CSCC(=O)N1CCc2cc(Cl)cc(Cl)c2C1" .
A. 15.6

Q. Entry CCCc1n[nH]c(C2CN(C(=O)CCCn3cccn3)CCO2)n1 (configuration not stated) has what Percent Effect?
A. -4.17

Q. What value of Percent Effect has been recorded for this entry: "Cc1cccc(C)c1NC(=O)CCNC(=O)c1ccoc1"
A. 18.2

Q. Percent Effect for "CN(C)C1CCN(C(=O)NCc2ccccc2Cn2cncn2)CC1" ?
A. 10.8

Q. Endpoint output: Percent Effect of Cc1ccc(N2CCC3(CCCN(C(=O)c4cccnc4)C3)C2)nn1 (configuration not stated) . Value?
A. 1.3

Q. Find the recorded Percent Effect belonging to "O=C(NCCc1ccc(Cl)s1)NCc1nnc2n1CCC2" and report it.
A. 18.4
